experiment: NCI Yeast Anticancer Drug Screen. Data for the rad50 strain (AID 155);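 further: 0% = growth of vehicle-only cultures of the same strain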; settings: S. cerevisiae rad50 strain growth inhibition; at 5.0 µM (retest, dose inferred, filed as 0.5); stronger effect = higher value
This is part of a sample that, as a whole, favours compounds with a hit. Of some 79,000 tested, about 15% had one in any assay.
quantity: growth inhibition (%)
State the answer as a number, implicitly in %.

Record excerpt, results attached:
compound=CSc1cccc(N2C(=O)C=CC2=O)c1 unit_info=% reported_measurement=42
compound=Cc1cccc(/C=N/NC(=S)Nc2ccccc2)n1 unit_info=% reported_measurement=-19
compound=Oc1cc(Cl)cc2cc(Cl)cnc12 unit_info=% reported_measurement=99

Query :: # growth inhibition lookup, item Oc1ccc2c(c1O)/C(=C/C=NCC1(O)OCC(O)C(O)C1O)C=N2 (stereo unspecified)
Result :: 2

Query :: # growth inhibition lookup, item COc1cc(C=Nc2ccc(Cl)cc2)ccc1OC(=O)c1ccccc1
Result :: 6

Query :: # growth inhibition lookup, item CN(C)Cc1ccc2[nH]c3c(c2c1)CCCC3
Result :: 4

Query :: # growth inhibition lookup, item COc1ccc(C(=O)c2ccc([N+](=O)[O-])cc2)cc1
Result :: -1

Query :: # growth inhibition lookup, item COc1ccc(N(C)Sc2ccccc2)cc1
Result :: -12

Query :: # growth inhibition lookup, item CC(=O)Nc1[c-]cccc1.CC(=O)Nc1[c-]cccc1.CC(=O)O.CC(=O)O.[Pd].[Pd]
Result :: 2

Query :: # growth inhibition lookup, item O=C(Nc1cc(Cl)c(Cl)cc1Cl)C(=O)C(C(=O)c1ccc2ccccc2c1)C1OC(=O)c2ccccc21 (stereo unspecified)
Result :: 17

Query :: # growth inhibition lookup, item CSCS(=O)C[C@H](CO)NC(=O)/C=C/c1c(C)[nH]c(=O)[nH]c1=O (stereo partly specified)
Result :: 26
